Test: COS7 lysate on small-molecule microarray, probe aHis, 635 nm (AID 1123);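 note: z-score combines 667nm fluorescence intensity with signal-to-noise per printed compound spot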
Conditions: COS7 cell lysate, fluorescence, higher = more signal
MEASURED METRIC: composite z-score
Answers are plain numbers.

Take a look at these entries with their results.
1. C=CC[C@@H]1C=C[C@H](ON=C(C)CCC(=O)OC[C@H]2O[C@H](C#Cc3ccccc3)C=C[C@@H]2Oc2ccc(C)cc2)[C@@H](CO)O1 = 1.23
2. C[C@@H]1CC[C@H]2C(=O)O[C@@H](Cc3ccccc3)CN2[C@H]1c1ccc(Br)cc1 = 0.871
3. CCOC(=O)NN=C1C[C@@H](O)[C@@H](O)[C@@H]2[C@@H]3C(=O)N(C(C)(C)C)C(=O)[C@@H]3CC[C@H]12 = -0.227

I would be grateful if you could provide composite z-score for each of the following entries.
1. CCOC(=O)[C@H](Cc1ccccc1)NC(=O)CCC1CC(OC(=O)NCCc2ccc(F)cc2)CC2(CCCC(COC(=O)NCc3ccccc3)O2)O1 (stereo not given in full)
2. O=C1[C@H]2[C@H]3[C@H](O)[C@H](O)CC(=NOC[C@@H](O)COCc4ccco4)[C@H]3CC[C@H]2C(=O)N1Cc1ccccc1
3. C=CC[C@@H]1C=C[C@H](ON=C[C@@H](C)[C@H](OCc2ccccc2)C(C)C)[C@@H](CO)O1
4. CO[C@@H]1COC(=O)[C@H](CCSC)NC(=O)CC=C[C@@H](C)COC(=O)CCC[C@H]1C
5. CCOC(=O)[C@H](CC(C)C)NC(=O)CCC1CC(OC(=O)NCc2ccc3c(c2)OCO3)CC2(CCCC(COC(=O)NCC3CCCCC3)O2)O1 (stereo not given in full)

0.244
-0.867
0.502
-1.31
0.636

I would be grateful if you could provide composite z-score for each of the following entries.
1. COc1cccc([C@H]2Oc3ccc(OC)cc3C(=NO[C@@H](C)c3cn([C@H](CO)Cc4ccccc4)nn3)[C@@H]2O)c1
2. COC(=O)CC=C[C@@H](C)[C@@H](C=NO[C@@H]1O[C@H](COC(C)=O)[C@@H](OC(C)=O)[C@H](OC(C)=O)[C@H]1OC(C)=O)OC
3. CCN1C(=O)[C@H]2[C@H]3[C@H](O)[C@H](O)CC(=NOC[C@H]4O[C@H](c5ccccc5)C=C[C@@H]4Oc4ccc(OC)cc4)[C@@H]3CC[C@H]2C1=O
4. CC(=O)Nc1ccc([C@@H]2N[C@H](C(=O)O)CC[C@H]2C)cc1
5. O=c1n(-c2ccccc2)c(=O)n2n1CC[C@@H]1C(=NOCc3ccccc3)[C@H]3O[C@H]3[C@@H](O)[C@@H]12
6. CC(=O)OC[C@H]1O[C@H](CCON=C2[C@H]3CCn4c(=O)n(-c5ccccc5)c(=O)n4[C@H]3[C@H](O)[C@@H]3O[C@H]23)C=C[C@@H]1OC(C)=O
7. O=C(NN=C1C[C@@H](O)[C@@H](O)[C@@H]2[C@@H]3C(=O)N(C[C@@H]4CCCO4)C(=O)[C@@H]3CC[C@H]12)OCc1ccccc1

[0.107, -0.152, 0.383, -0.0725, -0.539, 0.343, 0.109]

I would be grateful if you could provide composite z-score for each of the following entries.
1. O=C(NN=C1C[C@@H](O)[C@@H](O)[C@@H]2[C@@H]3C(=O)N(C4CCCCC4)C(=O)[C@@H]3CC[C@@H]12)OCc1ccccc1
2. CO[C@H]1COC(=O)CCC[C@@H](C)[C@H](OC)COC(=O)[C@@H]2CCCN2C(=O)CC=C[C@@H]1C
3. CC=CC1=C(CO)C(=O)[C@@H]2O[C@@H]2C1=O
4. CCCCC#C[C@@H]1C=C[C@H](Oc2ccc(C(=O)OC)cc2)[C@@H](COC(=O)OCC)O1
5. Cc1cc2c(nc1C)CCCCN2CC(C)ON=C[C@@H](C)[C@H](OCc1ccccc1)C(C)C (stereo not given in full)

1: -0.107; 2: -0.776; 3: -0.91; 4: 0.205; 5: -0.602

I would be grateful if you could provide composite z-score for each of the following entries.
1. C#CCCCON=C1C[C@@H](O)[C@@H](O)[C@@H]2[C@@H]3C(=O)N(c4ccc(F)cc4F)C(=O)[C@@H]3CC[C@@H]12
2. COc1cccc([C@H]2Oc3ccc(OC)cc3C(=NO[C@H](C)c3cn([C@H](CO)Cc4ccccc4)nn3)[C@@H]2O)c1

1: -0.366; 2: 0.418

====

Assay: binders from COS7 lysate, DM2A8 probe, primary screen, torsin A project, cell lysate, small-molecule microarray, fluorescence 635/667 (AID 1065)
Details: higher = more signal, COS7 lysate expressing mutant human TOR1A
Label Not met if composite z-score falls below 0.3; label Met in every other case.

Known results for molecules:
1. COc1cccc([C@H]2Oc3ccc(OC)cc3C(=NO[C@@H]3O[C@H](COC(C)=O)[C@@H](OC(C)=O)[C@H](OC(C)=O)[C@H]3OC(C)=O)[C@@H]2O)c1 = Met
2. CCC(=O)[C@@]1(O)C(=O)N2C(=C3C(=O)OCC[C@@H]31)N(Cc1ccccc1)C(C)=C(C(=O)OC)[C@H]2c1ccccc1 = Met

Kindly determine if composite z-score recorded for "COc1cccc([C@H]2Oc3ccc(OC)cc3C(=NO[C@@H](C)c3cn([C@H](CO)Cc4ccccc4)nn3)[C@@H]2O)c1" is above or exactly 0.3. Not met

Now consider "C[C@H](ON=C1[C@H]2CCn3c(=O)n(-c4ccccc4)c(=O)n3[C@H]2[C@H](O)[C@@H]2O[C@H]12)c1cn([C@H](CO)Cc2ccccc2)nn1" . Met

Now consider CCOC(=O)[C@H](Cc1ccccc1)NC(=O)CCC1CC(OC(=O)NCCc2ccc(F)cc2)CC2(CCCC(COC(=O)NCCOC)O2)O1 (some centres undefined) . Not met

Now consider "COc1ccc(O[C@H]2C=C[C@@H](c3ccccc3)O[C@@H]2COC(=O)CCC(C)=NO[C@@H]2O[C@H](COC(C)=O)[C@@H](OC(C)=O)[C@H](OC(C)=O)[C@H]2OC(C)=O)cc1" . Not met

Now consider "CC(C)=CCCC(C)=CCON=C1C[C@@H](O)[C@@H](O)[C@@H]2[C@@H]3C(=O)N(C(C)(C)C)C(=O)[C@@H]3CC[C@H]12" . Not met

Now consider "CCc1cc2c(nc1CC)CCN(CCC(C)=NO[C@H](C)c1cn([C@@H]3COC[C@H]3O)nn1)C2" . Not met

Now consider CCOC(=O)[C@H](CC(C)C)NC(=O)CCC1CC(OC(=O)NCc2ccc3c(c2)OCO3)CC2(CCCC(COC(=O)NCCCN3CCCC3=O)O2)O1 (some centres undefined) . Met

Now consider "CCN1C(=O)[C@H]2[C@H]3[C@H](O)[C@H](O)CC(=NO[C@@H](C)c4cn([C@H](CO)Cc5ccccc5)nn4)[C@@H]3CC[C@H]2C1=O" . Met

Now consider "C[C@H]1CC[C@H]2C(=O)O[C@H](COc3ccc(C(C)(C)C)cc3)CN2[C@@H]1c1ccc(Br)cc1" . Not met

Now consider "COC(=O)[C@H]1O[C@@H](c2c(OC)c(OC)c(C)c(OC)c2OC)[C@H](C)[C@@H](O)[C@H]1C" . Met

Now consider "CC(C)(C)N1C(=O)[C@H]2[C@H]3[C@H](O)[C@H](O)CC(=NO[C@@H]4O[C@H](CO)[C@@H](O)[C@H](O)[C@H]4O)[C@H]3CC[C@H]2C1=O" . Not met

Now consider "COC(=O)NCC=Cc1nc(CCCO)co1" . Not met

====

Assay: binders of probe aFSTL3 on microarray, primary screen, stem cell growth factor project, biochemical, small-molecule microarray, fluorescence 635/667 (AID 1064);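 note: measures binding of the biotinylated anti-FSTL3 antibody to printed compounds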
Conditions: higher = more signal
MEASURED METRIC: composite z-score
Give bare numbers.

1) COC(=O)CC=C[C@@H](C)[C@H](OCc1cccc(-c2ccccc2)c1)C1CCCCC1 = -0.131

I would be grateful if you could provide composite z-score for each of the following entries.
1. COc1cccc([C@H]2Oc3ccc(OC)cc3C(=NOC[C@@H](C)[C@H](OCc3ccccc3)C(C)C)[C@@H]2O)c1
2. COC(=O)CC=C[C@@H](C)[C@@H](C=NO[C@@H](C)c1cc(-c2c(C)cc(C)cc2C)no1)NS(=O)(=O)c1ccc(C)cc1
3. C[n+]1ccc(-c2ccc(CO)cc2)cc1
4. C=COC[C@@H]1CN2[C@@H](CC[C@@H](C)[C@@H]2c2ccc(Br)cc2)C(=O)O1
5. CCCNC(=O)OC[C@H]1O[C@H](CCON=C(C)CCN2CCc3nc(CC)c(CC)cc3C2)C=C[C@@H]1Oc1ccc(OC)cc1
6. Cc1cc2c(nc1C)CCCN2CC(O)CN1CCCc2nc(C)c(C)cc21

1: -0.108; 2: 1.38; 3: 0.772; 4: -0.154; 5: -0.343; 6: 0.472

I would be grateful if you could provide composite z-score for each of the following entries.
1. COC(=O)[C@H](C)NC(=O)CCC1CC(OC(=O)NCc2ccc3c(c2)OCO3)CC2(CCCC(COC(=O)NCC3CCCCC3)O2)O1 (stereo not given in full)
2. COC(=O)[C@H](C)NC(=O)CCC1CC(OC(=O)NCc2ccc3c(c2)OCO3)CC2(CCCC(COC(=O)NCC(c3ccccc3)c3ccccc3)O2)O1 (stereo not given in full)
3. O=C1C=C[C@@H](O)[C@@H]2[C@@H]3C(=O)N(c4ccc(F)cc4F)C(=O)[C@@H]3CC[C@@H]12
4. CON=C1[C@H]2CCn3c(=O)n(-c4ccccc4)c(=O)n3[C@H]2[C@H](O)[C@@H]2O[C@H]12
5. O=C1[C@H]2[C@H]3[C@H](O)[C@H](O)CC(=NOCc4ccccc4)[C@@H]3CC[C@H]2C(=O)N1Cc1ccc2c(c1)OCO2
6. COC(=O)[C@H]1O[C@@H](c2c(OC)c(OC)c(C)c(OC)c2OC)[C@H](C)[C@@H](O)[C@H]1C
7. C#CCCCON=C1C[C@@H](O)[C@@H](O)[C@@H]2[C@@H]3C(=O)N(Cc4ccccc4)C(=O)[C@@H]3CC[C@@H]12

[-0.632, -0.686, -0.298, -0.39, -0.138, -0.341, -0.19]

I would be grateful if you could provide composite z-score for each of the following entries.
1. COC(=O)C1=C(C)N(Cc2ccccc2)[C@]23O[C@](C(=O)OC)(C(=O)N2[C@@H]1c1ccccc1)C(C(=O)OC)=C3C(=O)OC
2. COC(=O)[C@@H]1CC[C@H](C)[C@@H](c2ccc(C)cc2)N1C(=O)c1ccc(C=NO[C@H](C)c2cn([C@H](CO)Cc3ccccc3)nn2)cc1
3. COCCNC(=O)OCC1CCCC2(CC(OC(=O)NCc3ccc4c(c3)OCO4)CC(CCC(=O)N[C@@H](C)C(=O)OC)O2)O1 (stereo not given in full)
4. COc1cccc([C@H]2Oc3ccc(OC)cc3C(=NOC(C)CN3CCCCc4nc(C)c(C)cc43)[C@@H]2O)c1 (stereo not given in full)
5. COc1ccc(COC(=O)NN=C2C[C@@H](O)[C@@H](O)[C@@H]3[C@@H]4C(=O)N(C5CCCCC5)C(=O)[C@@H]4CC[C@H]23)cc1
6. O=c1n(Cc2cc3c(cc2Cl)OCO3)c(=O)n2n1CC[C@@H]1C(=NOCc3ccccc3)[C@H]3O[C@H]3[C@@H](O)[C@@H]12
7. COC(=O)CC=C[C@@H](C)[C@@H]1C=C[C@H](O)[C@@H](CO)O1
8. COC(=O)CC=C[C@@H](C)[C@@H](C=NO[C@H](C)c1cn([C@H](CO)Cc2ccccc2)nn1)NS(=O)(=O)c1ccc(C)cc1

1. -0.309
2. -0.02
3. -0.463
4. 0.161
5. 1.21
6. -0.381
7. -0.202
8. -0.468

I would be grateful if you could provide composite z-score for each of the following entries.
1. CCOC(=O)NN=C1C[C@@H](O)[C@@H](O)[C@@H]2[C@@H]3C(=O)N(c4cccc(Oc5ccccc5)c4)C(=O)[C@@H]3CC[C@H]12
2. CC(C)[C@@H](OCc1ccccc1)[C@H](C)C=NOC[C@@H](O)COCc1ccco1

[-0.441, -0.457]
